System: HL-60 (TB)
Method: SRB anticancer assay, leukemia
Format: cell-based, human
Condition context: Homo sapiens, HL-60, 48 h
Define the label as class 1 when GI50 is strictly less than 3000 nM and as class 0 in all remaining cases.

Smiles input: COc1cc(OC)c2sc(-c3ccc(-n4cncc4-c4cc(OC)c(OC)c(OC)c4)cc3)nc2c1
Target of assay: HL-60 (TB)
Assigned label: class 0
--
Smiles input: COc1cc2nc(-c3ccc(-n4cncc4-c4ccc(N)cc4)cc3)sc2c(OC)c1OC
Target of assay: HL-60 (TB)
Assigned label: class 1
--
Smiles input: COc1cc(-c2cncn2-c2ccc(-c3nc4ccc(F)cc4s3)cc2)ccc1F
Target of assay: HL-60 (TB)
Assigned label: class 1
--
Smiles input: COc1ccc(-c2cncn2-c2ccc(-c3nc4cc(OC)c(OC)c(OC)c4s3)cc2)cc1N
Target of assay: HL-60 (TB)
Assigned label: class 1

[ask] is_below(GI50, 3000 nM) for COc1cc(OC)cc(-c2cncn2-c2ccc(-c3nc4cc(OC)c(OC)c(OC)c4s3)cc2)c1 ?
[reply] class 1

---

Consider the following GI50 values measured on SK-MEL-2.
Write the answer as a number in µM, unit excluded.

Previously resolved entries follow.
Smiles input: COc1cc(-c2cncn2-c2ccc(-c3nc4ccc(F)cc4s3)cc2)ccc1F
Target of assay: SK-MEL-2
Measurement name: GI50
Unit name: µM
Assay value: 39.7

Smiles input: COc1cc(OC)c2sc(-c3ccc(-n4cncc4-c4cc(OC)c(OC)c(OC)c4)cc3)nc2c1
Target of assay: SK-MEL-2
Measurement name: GI50
Unit name: µM
Assay value: 6.09

Smiles input: COc1cc(OC)c2sc(-c3ccc(-n4cncc4-c4ccc(OC)c(OC)c4)cc3)nc2c1
Target of assay: SK-MEL-2
Measurement name: GI50
Unit name: µM
Assay value: 41.4

Smiles input: COc1ccc(-c2cncn2-c2ccc(-c3nc4cc(OC)c(OC)c(OC)c4s3)cc2)cc1N
Target of assay: SK-MEL-2
Measurement name: GI50
Unit name: µM
Assay value: 6.04

Smiles input: COc1cc(OC)cc(-c2cncn2-c2ccc(-c3nc4cc(OC)c(OC)c(OC)c4s3)cc2)c1
Target of assay: SK-MEL-2
Measurement name: GI50
Unit name: µM
Assay value: 6.16

Consider the record given below.
[ask] # return GI50 for COc1cc(OC)cc(-c2cncn2-c2ccc(-c3nc4cc(OC)cc(OC)c4s3)cc2)c1 , test system: SK-MEL-2
[reply] 9.69

---

Test system: K-562
Method: SRB anticancer assay, leukemia
Format: cell-based, human
Condition context: Homo sapiens, K562; K-562, 48 h
Measurement name: GI50 (µM)
Write the answer as a number in µM, unit excluded.

Previously resolved entries follow.
Smiles input: COc1ccc(-c2cncn2-c2ccc(-c3nc4cc(OC)c(OC)c(OC)c4s3)cc2)cc1N
Target of assay: K-562
GI50 (µM): 3.38
//
Smiles input: COc1cc(OC)c2sc(-c3ccc(-n4cncc4-c4ccc(OC)c(OC)c4)cc3)nc2c1
Target of assay: K-562
GI50 (µM): 5.88
//
Smiles input: COc1cc(OC)c2sc(-c3ccc(-n4cncc4-c4cc(OC)c(OC)c(OC)c4)cc3)nc2c1
Target of assay: K-562
GI50 (µM): 3.83

[ask] For the compound COc1cc(-c2cncn2-c2ccc(-c3nc4ccc(F)cc4s3)cc2)ccc1F , report GI50.
[reply] 3.93

[ask] For the compound COc1cc(OC)cc(-c2cncn2-c2ccc(-c3nc4cc(OC)cc(OC)c4s3)cc2)c1 , report GI50.
[reply] 3.22

[ask] For the compound COc1cc(OC)cc(-c2cncn2-c2ccc(-c3nc4cc(OC)c(OC)c(OC)c4s3)cc2)c1 , report GI50.
[reply] 3.57
